- MEASUREMENT TARGET: Neu5Ac(a2-3)GalNAc
- METHOD DESCRIPTION: glycan array binding signal (z-score within array); higher = stronger binding
- CONDITIONS USED: glycan notation: IUPAC condensed, linker removed
The entries come from a sample that favours the strongest signals as a whole.
Output satisfied for glycan array binding signal (z-score) not less than -0.2; output not satisfied otherwise.

- BINDER: "EULS2 M4 (Oryza sativa) (protein) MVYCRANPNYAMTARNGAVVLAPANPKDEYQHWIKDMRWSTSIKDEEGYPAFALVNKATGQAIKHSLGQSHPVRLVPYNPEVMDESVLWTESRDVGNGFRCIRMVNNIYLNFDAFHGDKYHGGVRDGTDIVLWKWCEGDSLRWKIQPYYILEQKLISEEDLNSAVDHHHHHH"
  CLASS LABEL: "satisfied"
- BINDER: "PhypaEULS3 (Physcomitrella patens) (protein) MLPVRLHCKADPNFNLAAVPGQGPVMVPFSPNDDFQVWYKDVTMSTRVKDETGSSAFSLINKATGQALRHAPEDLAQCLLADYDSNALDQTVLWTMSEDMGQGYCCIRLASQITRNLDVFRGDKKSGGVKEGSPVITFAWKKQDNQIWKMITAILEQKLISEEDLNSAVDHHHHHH"
  CLASS LABEL: "satisfied"
- BINDER: "MSMEG3662-2a (Mycobacterium smegmatis), A0QYH7_MYCS2 (protein) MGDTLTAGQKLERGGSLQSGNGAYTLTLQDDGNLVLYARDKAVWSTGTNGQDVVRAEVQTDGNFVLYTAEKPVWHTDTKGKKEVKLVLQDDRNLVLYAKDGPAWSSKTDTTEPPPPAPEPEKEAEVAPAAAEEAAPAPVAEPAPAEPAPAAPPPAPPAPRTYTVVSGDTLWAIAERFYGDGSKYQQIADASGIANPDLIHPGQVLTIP"
  CLASS LABEL: "satisfied"
- BINDER: "MAL (Maackia amurensis) (protein) SDELSFTINNFMPNQGDLLFQGVATVSPTGVLQLTSEENGQPLEYSVGRVLYTAPVRIWDSTTGAVASFSTSFTFVVKAARGASDGLAFFLAPPDSQIPSGSVSKYLGLFNNSNSDSSNQIVAVEFDTYFGHSYDPWDPNYRHIGIDVNGIESIKTVQWDWINGGVAFATITYLAPNKTLIASLVYPSNQTSFIVAASVDLKEILPEWVRVGFSAATGAPKAVETHDVRSWSFTSTLEANSPADVDN"
  CLASS LABEL: "not satisfied"
- BINDER: "Mermaid1 (Stilbonema majum) (protein) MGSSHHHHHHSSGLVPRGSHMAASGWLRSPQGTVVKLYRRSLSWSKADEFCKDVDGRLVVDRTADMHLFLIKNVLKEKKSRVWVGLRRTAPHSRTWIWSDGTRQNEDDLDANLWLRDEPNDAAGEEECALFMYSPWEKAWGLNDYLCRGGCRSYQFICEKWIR"
  CLASS LABEL: "not satisfied"
